Data provenance: patent US6143492A

Molecular target: UniProt P33261
Assay: Kinetics of fluorogenic substrates with CYP 2C19
Format: biochemical
Settings: CYP 2C19, substrate 10 uM
Parameter: v (10 uM), turnover rate at 10 μM (min⁻¹)

A selection of reference data follows.
- CCOc1ccc2cc(C#N)c(=O)oc2c1 [3CEC, 3-Cyano-7-ethoxycoumarin, reference compound]: 0.34
- CCCCCCCCOCOc1ccc2nc3ccc(=O)cc-3oc2c1 [OOMR, Octyloxymethylresorufin]: 0.13
- N#Cc1cc2ccc(OCOCc3ccccc3)cc2oc1=O [BOMCC, 7-Benzyloxymethyloxy-3-cyanocoumarin]: 0.68
- COCOc1ccc2cc(C#N)c(=O)oc2c1 [MOMCC]: 0.38
- CCOCOc1ccc2cc(C#N)c(=O)oc2c1 [EOMCC]: 2.22

P = CC(C)Oc1ccc2cc(C#N)c(=O)oc2c1 [IPCC]
Q = N#Cc1cc2ccc(OCc3ccccc3)cc2oc1=O [BCC, 7-Benzyloxy-3-cyanocoumarin, reference compound]
R = CCCCCCCCOCOc1ccc2cc(C#N)c(=O)oc2c1 [OOMCC]
S = COc1ccc(COc2ccc3nc4ccc(=O)cc-4oc3c2)cc1 [MOBR, Paramethoxybenzylresorufin]
Q. Put the compounds in ascending order of v (10 uM), turnover rate at 10 μM. // ordering of labels required in reply
A. Q, P, S, R

---

Target: CYP 3A4 (Homo sapiens)
Construct: NADPH regenerating system
Sequence (P08684 whole entry): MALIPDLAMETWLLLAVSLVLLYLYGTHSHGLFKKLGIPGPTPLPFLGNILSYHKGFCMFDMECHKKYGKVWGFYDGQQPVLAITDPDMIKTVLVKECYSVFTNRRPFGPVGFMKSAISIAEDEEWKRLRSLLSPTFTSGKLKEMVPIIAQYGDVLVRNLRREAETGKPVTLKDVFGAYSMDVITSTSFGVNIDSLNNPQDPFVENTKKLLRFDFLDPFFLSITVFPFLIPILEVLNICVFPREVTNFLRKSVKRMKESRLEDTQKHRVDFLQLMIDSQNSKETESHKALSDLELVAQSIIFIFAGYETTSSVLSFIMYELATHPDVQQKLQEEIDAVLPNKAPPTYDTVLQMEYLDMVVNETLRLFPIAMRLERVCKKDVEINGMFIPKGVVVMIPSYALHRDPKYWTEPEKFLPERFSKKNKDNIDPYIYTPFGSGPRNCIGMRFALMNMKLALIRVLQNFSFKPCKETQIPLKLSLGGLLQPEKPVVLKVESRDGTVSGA
Assay: Kinetics of fluorogenic substrates with CYP 3A4
Format: biochemical
Settings: CYP 3A4, substrate 10 uM
Parameter: v (10 uM), turnover rate at 10 μM (min⁻¹)

* CCCCCCCCOCOc1ccc2nc3ccc(=O)cc-3oc2c1 | 0.601

a = O=C(OCc1ccccc1)c1c2oc3cc(OCc4ccccc4)ccc3nc-2ccc1=O
b = CCCCCCCCOCOc1ccc2cc(C#N)c(=O)oc2c1
Q. Name the one with the greater v (10 uM), turnover rate at 10 μM value, either a or b as given. Mark your selection by writing its label.
A. b
(b: 0.981 min⁻¹, a: 0.6241 min⁻¹)

---

Target: CYP 3A4 (Homo sapiens)
Construct: NADPH regenerating system
Experiment: Kinetics of fluorogenic substrates with CYP 3A4
Assay type: biochemical
Settings: CYP 3A4, substrate 10 uM
Parameter: v (10 uM), turnover rate at 10 μM (min⁻¹)

• CC1(C)C2=C(Cl)C(=O)C(Cl)=CC2=Nc2ccc(OCOCc3ccccc3)cc21 = 4.2041
• N#Cc1cc2ccc(OCOCc3ccccc3)cc2oc1=O = 0.98
• O=c1cc(C(F)(F)F)c2ccc(OCc3ccccc3)cc2o1 [BFC, 7-Benzyloxy-4-trifluoromethylcoumarin, reference compound] = 0.81
• O=c1cc(C(F)(F)F)c2ccc(OCOCc3ccccc3)cc2o1 = 1.41
• O=c1ccc2nc3ccc(OCc4ccccc4)cc3oc-2c1 [BR, Benzylresorufin, reference compound] = 0.08
• CCOCOc1ccc2nc3ccc(=O)cc-3oc2c1 = 0.10

P = COCOc1ccc2nc3ccc(=O)cc-3oc2c1
Q = O=c1ccc2nc3ccc(OCOCc4ccccc4)cc3oc-2c1
Q. Could you tell me which of P and Q has the lower v (10 uM), turnover rate at 10 μM reading? Refer to your chosen item by its label in the answer.
A. P
(P: 0.0338 min⁻¹, Q: 0.88 min⁻¹)

---

Target: CYP 2C19 (Homo sapiens, UniProt P33261)
Sequence (P33261 whole entry): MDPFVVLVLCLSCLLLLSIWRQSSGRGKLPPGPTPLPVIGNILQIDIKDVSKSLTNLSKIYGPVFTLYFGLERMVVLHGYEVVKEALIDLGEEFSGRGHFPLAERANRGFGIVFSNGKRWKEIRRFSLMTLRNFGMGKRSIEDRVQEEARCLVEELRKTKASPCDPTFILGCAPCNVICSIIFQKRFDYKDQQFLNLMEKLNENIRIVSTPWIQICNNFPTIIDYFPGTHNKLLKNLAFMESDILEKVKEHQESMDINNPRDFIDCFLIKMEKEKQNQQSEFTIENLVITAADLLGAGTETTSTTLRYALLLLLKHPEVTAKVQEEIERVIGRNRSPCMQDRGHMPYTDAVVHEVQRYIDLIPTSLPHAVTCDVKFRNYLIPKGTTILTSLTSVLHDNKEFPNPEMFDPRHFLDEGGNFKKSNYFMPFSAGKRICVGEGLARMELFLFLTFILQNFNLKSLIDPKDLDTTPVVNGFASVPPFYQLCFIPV
Assay: Kinetics of fluorogenic substrates with CYP 2C19
Format: biochemical
Conditions: CYP 2C19, substrate 1.25 uM
Parameter: v (1.25 uM), turnover rate at 1.25 μM (min⁻¹)

These solved cases illustrate the format of a correct answer.
• N#Cc1cc2ccc(OCOCc3ccccc3)cc2oc1=O = 0.16
• COc1ccc(COc2ccc3nc4ccc(=O)cc-4oc3c2)cc1 = 1.26
• COCOc1ccc2nc3ccc(=O)cc-3oc2c1 = 0.06
• N#Cc1cc2ccc(OCc3ccccc3)cc2oc1=O [BCC, 7-Benzyloxy-3-cyanocoumarin, reference compound] = 0.02
• COCOc1ccc2cc(C#N)c(=O)oc2c1 = 0.14
• CCOCOc1ccc2cc(C#N)c(=O)oc2c1 = 0.34

1 = CCN(CC)Cc1cc(=O)oc2cc(OC)ccc12
2 = COc1ccc2cc(C#N)c(=O)oc2c1 [3CMC, 3-cyano-7-methoxycoumarin, reference compound]
Q. // which entry reports the smaller v (1.25 uM), turnover rate at 1.25 μM, 1 or 2 ? When you have decided, please share the label of that item.
A. 2
(2: 0.01 min⁻¹, 1: 0.03 min⁻¹)

1 = CC(C)Oc1ccc2cc(C#N)c(=O)oc2c1
2 = CCCCCCCCOCOc1ccc2cc(C#N)c(=O)oc2c1
3 = CCCCCCCCOCOc1ccc2nc3ccc(=O)cc-3oc2c1
Q. Please order the records by their reported v (1.25 uM), turnover rate at 1.25 μM, lowest number first. Order the labels as requested and give them as your answer.
A. 1, 3, 2
(1: 0.027 min⁻¹, 3: 0.1 min⁻¹, 2: 0.179 min⁻¹)

---

Molecular target: CYP 2C9 (Homo sapiens)
Sequence (P11712 whole entry): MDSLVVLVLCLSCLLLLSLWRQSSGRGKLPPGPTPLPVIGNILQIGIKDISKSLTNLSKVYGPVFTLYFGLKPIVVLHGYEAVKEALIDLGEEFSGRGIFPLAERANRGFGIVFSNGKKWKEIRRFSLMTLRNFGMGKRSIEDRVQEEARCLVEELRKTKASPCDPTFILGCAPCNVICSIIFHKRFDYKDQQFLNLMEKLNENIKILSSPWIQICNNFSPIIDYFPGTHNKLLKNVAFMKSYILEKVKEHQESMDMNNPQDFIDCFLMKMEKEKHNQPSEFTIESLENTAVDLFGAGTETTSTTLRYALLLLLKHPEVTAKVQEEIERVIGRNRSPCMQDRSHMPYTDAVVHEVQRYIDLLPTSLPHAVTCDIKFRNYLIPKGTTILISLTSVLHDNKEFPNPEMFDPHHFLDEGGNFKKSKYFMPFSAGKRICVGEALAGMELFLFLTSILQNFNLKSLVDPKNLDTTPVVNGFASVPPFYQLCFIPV
Test: Kinetics of fluorogenic substrates with CYP 2C9
Type: biochemical
Settings: CYP 2C9, substrate 1.25 uM
Parameter: v (1.25 uM), turnover rate at 1.25 μM (min⁻¹)

* COc1ccc(COc2ccc3c(C(F)(F)F)cc(=O)oc3c2)cc1 | 0.02
* CCCCCCCCOCOc1ccc2nc3ccc(=O)cc-3oc2c1 | 0.137
* COc1ccc2cc(C#N)c(=O)oc2c1 [3CMC, 3-cyano-7-methoxycoumarin, reference compound] | 0.00

1 = COCOc1ccc2cc(C#N)c(=O)oc2c1
2 = N#Cc1cc2ccc(OCOCc3ccccc3)cc2oc1=O
Q. Of 1 versus 2 , which is the one with smaller reported v (1.25 uM), turnover rate at 1.25 μM? # answer = label of selected item
A. 1
(1: 0.01 min⁻¹, 2: 0.04 min⁻¹)

---

Biological target: CYP 2B6 (Homo sapiens)
Sequence (P20813 whole entry): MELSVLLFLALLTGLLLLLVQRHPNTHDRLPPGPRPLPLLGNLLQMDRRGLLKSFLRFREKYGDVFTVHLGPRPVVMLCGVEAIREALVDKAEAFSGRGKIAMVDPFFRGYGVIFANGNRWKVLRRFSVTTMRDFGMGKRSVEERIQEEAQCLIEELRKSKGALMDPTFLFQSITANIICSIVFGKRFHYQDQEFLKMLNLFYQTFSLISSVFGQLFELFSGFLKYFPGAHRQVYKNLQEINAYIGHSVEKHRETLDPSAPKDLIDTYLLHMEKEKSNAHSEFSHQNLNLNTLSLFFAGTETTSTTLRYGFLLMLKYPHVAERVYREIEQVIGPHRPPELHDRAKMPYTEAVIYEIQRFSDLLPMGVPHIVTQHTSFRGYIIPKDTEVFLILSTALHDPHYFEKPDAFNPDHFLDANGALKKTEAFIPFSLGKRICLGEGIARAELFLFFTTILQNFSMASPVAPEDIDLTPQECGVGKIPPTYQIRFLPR
Parameter: kcat (s⁻¹)

A selection of reference data follows.
- COc1ccc(COc2ccc3nc4ccc(=O)cc-4oc3c2)cc1: 0.0067
- O=c1ccc2nc3ccc(OCOCc4ccccc4)cc3oc-2c1: 0.013
- N#Cc1cc2ccc(OCOCc3ccccc3)cc2oc1=O: 1.1

I = N#Cc1cc2ccc(OCc3ccccc3)cc2oc1=O [BCC, 7-Benzyloxy-3-cyanocoumarin, reference compound]
II = COc1ccc2c(C(F)(F)F)cc(=O)oc2c1 [MFC, 7-Methoxy-4-trifluoromethylcoumarin, reference compound]
Q. Could you tell me which of these two has the smaller kcat figure? First: I Second: II Answer format: the label of the selected item.
A. I

---

Target: UniProt:P10635
Sequence (P10635 whole entry): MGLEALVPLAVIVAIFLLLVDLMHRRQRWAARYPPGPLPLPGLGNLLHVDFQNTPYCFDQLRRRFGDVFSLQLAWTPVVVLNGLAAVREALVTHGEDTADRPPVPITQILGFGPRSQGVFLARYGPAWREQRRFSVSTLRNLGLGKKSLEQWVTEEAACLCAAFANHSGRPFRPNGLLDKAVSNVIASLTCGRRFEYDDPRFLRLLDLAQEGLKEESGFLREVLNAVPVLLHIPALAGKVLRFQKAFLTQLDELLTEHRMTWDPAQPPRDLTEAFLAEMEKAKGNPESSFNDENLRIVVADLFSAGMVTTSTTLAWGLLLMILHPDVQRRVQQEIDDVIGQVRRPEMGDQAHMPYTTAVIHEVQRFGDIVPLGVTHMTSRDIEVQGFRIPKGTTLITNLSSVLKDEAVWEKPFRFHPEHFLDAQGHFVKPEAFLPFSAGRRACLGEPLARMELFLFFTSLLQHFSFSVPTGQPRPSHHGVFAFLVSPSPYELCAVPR
Test: Kinetics of fluorogenic substrates with CYP 2D6
Type: biochemical
Settings: CYP 2D6
Parameter: kcat/Km (M⁻¹ s⁻¹)

1 = COc1ccc(COc2ccc3nc4ccc(=O)cc-4oc3c2)cc1
2 = CC(C)Oc1ccc2cc(C#N)c(=O)oc2c1
3 = COc1ccc(COc2ccc3c(C(F)(F)F)cc(=O)oc3c2)cc1
4 = COCOc1ccc2nc3ccc(=O)cc-3oc2c1
Q. Rank the 4 molecules: largest kcat/Km first, smallest last. Reply format: the labels, ordered as requested.
A. 3, 4, 1, 2
(3: 2067 M⁻¹ s⁻¹, 4: 708 M⁻¹ s⁻¹, 1: 263 M⁻¹ s⁻¹, 2: 93 M⁻¹ s⁻¹)

---

Target: CYP 3A4 (Homo sapiens)
Construct: NADPH regenerating system
Test: Kinetics of fluorogenic substrates with CYP 3A4
Type: biochemical
Conditions: CYP 3A4, substrate 1.25 uM
Parameter: v (1.25 uM), turnover rate at 1.25 μM (min⁻¹)

- O=c1ccc2nc3ccc(OCOCc4ccccc4)cc3oc-2c1: 0.55
- O=c1ccc2nc3ccc(OCc4ccccc4)cc3oc-2c1 [BR, Benzylresorufin, reference compound]: 0.02

P = O=c1cc(C(F)(F)F)c2ccc(OCc3ccccc3)cc2o1 [BFC, 7-Benzyloxy-4-trifluoromethylcoumarin, reference compound]
Q = O=C(OCc1ccccc1)c1c2oc3cc(OCc4ccccc4)ccc3nc-2ccc1=O
Q. Would you kindly point out which of P and Q has the smaller v (1.25 uM), turnover rate at 1.25 μM figure? Kindly state the label of the option you pick.
A. P

---

Molecular target: CYP 2B6 (Homo sapiens)
Parameter: kcat/Km (M⁻¹ s⁻¹)

A selection of reference data follows.
• COc1ccc2c(C(F)(F)F)cc(=O)oc2c1 [MFC, 7-Methoxy-4-trifluoromethylcoumarin, reference compound] = 34524
• N#Cc1cc2ccc(OCOCc3ccccc3)cc2oc1=O = 21154
• O=c1ccc2nc3ccc(OCOCc4ccccc4)cc3oc-2c1 = 18265

A = COc1ccc(COc2ccc3nc4ccc(=O)cc-4oc3c2)cc1
B = N#Cc1cc2ccc(OCc3ccccc3)cc2oc1=O [BCC, 7-Benzyloxy-3-cyanocoumarin, reference compound]
Q. I'd appreciate it if you could identify which of A and B has the greater kcat/Km. Which one? Tell me its label.
A. A
(A: 58333 M⁻¹ s⁻¹, B: 1064 M⁻¹ s⁻¹)
